# reported MIC; entries follow
- System: Enterococcus faecalis ATCC 29212
- runDescription: Broth microdilution MIC, E. faecalis ATCC 29212
- Assay type: cell-based
- protocolConditions: ATCC29212, broth microdilution, 37° C., 20 hours, read-out: MIC E. faecalis ATCC 29212
measuredProperty: MIC (µg/mL)

>>> reportedvalue("O=c1[nH]c(NCc2ccc(Cl)c(Cl)c2)nc2cnn(CC(O)CN3CCOCC3)c12 (stereo not drawn) [Compound 289]")
16
>>> reportedvalue("CNCC(COC)OCCn1ncc2nc(NCc3ccc(Cl)c(Cl)c3)[nH]c(=O)c21.Cl (stereo not drawn) [Compound 184]")
64
>>> reportedvalue("COC(=O)CCn1ncc2nc(NCc3ccc(Cl)c(Cl)c3)[nH]c(=O)c21 [Compound 231]")
4
